B1: Caulobacter ParB omega fusion; a variant is named by its letters at X, in order, B8GW30 (parent)
chain: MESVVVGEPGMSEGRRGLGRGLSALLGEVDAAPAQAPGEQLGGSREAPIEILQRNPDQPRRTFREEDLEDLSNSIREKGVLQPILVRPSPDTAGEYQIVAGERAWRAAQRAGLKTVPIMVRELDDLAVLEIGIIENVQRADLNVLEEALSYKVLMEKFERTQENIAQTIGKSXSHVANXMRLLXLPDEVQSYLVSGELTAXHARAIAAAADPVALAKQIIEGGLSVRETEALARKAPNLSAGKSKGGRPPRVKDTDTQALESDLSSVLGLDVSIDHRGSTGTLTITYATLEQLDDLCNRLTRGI

Variants of: B1
test: one-hybrid fitness for binding parS DNA (scaled: cognate 1, non-cognate 0); higher = stronger binding
experimentalParameters: with parS DNA site
Whole data set: some 81,000 sequences, median “one-hybrid fitness for binding parS DNA” near -0.17, cut for the highest 2% near 0.51. The list comes from a sample in which the highest values are over-represented; it also holds close analogues and randomly drawn sequences.
Provide the reported one-hybrid fitness for binding parS DNA of each item.
Give your answer as a number; write no unit.

INPUT: // lookup one-hybrid fitness for binding parS DNA for RVAN
OUTPUT: 0.452

INPUT: // lookup one-hybrid fitness for binding parS DNA for RTST
OUTPUT: 0.91

INPUT: // lookup one-hybrid fitness for binding parS DNA for RVAS
OUTPUT: 1.01

INPUT: // lookup one-hybrid fitness for binding parS DNA for RVAH
OUTPUT: 0.225

INPUT: // lookup one-hybrid fitness for binding parS DNA for RWLN
OUTPUT: 0.313

INPUT: // lookup one-hybrid fitness for binding parS DNA for RWLS
OUTPUT: 0.8

INPUT: // lookup one-hybrid fitness for binding parS DNA for RVFN
OUTPUT: 0.399

INPUT: // lookup one-hybrid fitness for binding parS DNA for RWHS
OUTPUT: 0.894

INPUT: // lookup one-hybrid fitness for binding parS DNA for RWHN
OUTPUT: 0.301

INPUT: // lookup one-hybrid fitness for binding parS DNA for RTSF
OUTPUT: 0.246

The origin of these recorded values is a collection of fitness landscapes (doi:10.1016/j.celrep.2020.107928).
